- Assay Info: In vivo oral bioavailability assay in rats
- Condition Info: male, Sprague-Dawley, plasma; rat, intravenous administration 5 mg/kg; read-out: MRT0-∞
Assay Readout: MRT inf
Remember to quote the unit after the number.

Short answer for CO[C@H]1C[C@H]2OC[C@@]2(OC(C)=O)[C@H]2[C@H](OC(=O)c3ccccc3)[C@]34OC(=O)O[C@H]3[C@H](OC(=O)[C@H](O)[C@@H](NC(=O)OC(C)(C)C)c3ccccc3)C(C)=C([C@@H](OC(=O)N(C)C)C(=O)[C@]12C)C4(C)C [PCMI-08] : MRT inf was 10.1 h

* * *

- Test system: HT-29 colon cancer
- Assay Info: MTT proliferation inhibition, HT-29
- Assay type: cell-based
- Condition Info: Homo sapiens, HT-29, read-out: Proliferation inhibition rate, HT29 Colon cancer
Kindly supply the reported inhibition at 1 µM values for the records listed here.
Answers are plain numbers, in %.

Please review the following examples before continuing.
# Structure String, inhibition at 1 µM (%)
records = [
    ("COC(=O)O[C@H]1C[C@H]2OC[C@@]2(OC(C)=O)[C@H]2[C@H](OC(=O)c3ccccc3)[C@]34OC(=O)O[C@H]3[C@H](OC(=O)[C@H](O)[C@@H](NC(=O)N(C)C)c3ccccc3)C(C)=C([C@@H](OC)C(=O)[C@]12C)C4(C)C", 87.2),
    ("CO[C@H]1C[C@H]2OC[C@@]2(OC(C)=O)[C@H]2[C@H](OC(=O)c3ccccc3)[C@]34OC(=O)O[C@H]3[C@H](OC(=O)[C@H](O)[C@@H](NC(=O)OC(C)(C)C)c3ccccn3)C(C)=C([C@@H](OC(=O)N(C)C)C(=O)[C@]12C)C4(C)C", 87.8),
    ("CO[C@H]1C(=O)[C@]2(C)[C@@H](OC)C[C@H]3OC[C@@]3(OC(C)=O)[C@H]2[C@H](OC(=O)c2ccccc2)[C@]23OC(=O)O[C@H]2[C@H](OC(=O)[C@H](O)[C@@H](NC(=O)N(C)C)c2ccccc2)C(C)=C1C3(C)C", 88.5),
]

Next:
Lab note: measured inhibition at 1 µM of `COC(=O)O[C@H]1C[C@H]2OC[C@@]2(OC(C)=O)[C@H]2[C@H](OC(=O)c3ccccc3)[C@]34OC(=O)O[C@H]3[C@H](OC(=O)[C@H](O)[C@H](CC(C)C)NC(=O)OC(C)(C)C)C(C)=C([C@@H](OC)C(=O)[C@]12C)C4(C)C` was 87.2
